molecular target: human CYP11B1 (Homo sapiens); test: Spectral ligand binding titration; conditions: dissociation constant Kd, 40-fold excess adrenodoxin; 1 μM CYP11B1
attribute.measured: Kd (µM)
Field format: number, assumed µM, no unit text.

Input line: Given the compound C[C@]12CCC(=O)C=C1CC[C@@H]1[C@@H]2CC[C@@]2(C)[C@H]1CC[C@]2(O)C(=O)CO , what is its reported Kd?
Output line: 7.3

====

target: human CYP11B1 (Homo sapiens, UniProt P15538); test: Spectral ligand binding titration; conditions: dissociation constant Kd, equimolar adrenodoxin (1 μM); 1 μM CYP11B1
Sequence (P15538 25-503): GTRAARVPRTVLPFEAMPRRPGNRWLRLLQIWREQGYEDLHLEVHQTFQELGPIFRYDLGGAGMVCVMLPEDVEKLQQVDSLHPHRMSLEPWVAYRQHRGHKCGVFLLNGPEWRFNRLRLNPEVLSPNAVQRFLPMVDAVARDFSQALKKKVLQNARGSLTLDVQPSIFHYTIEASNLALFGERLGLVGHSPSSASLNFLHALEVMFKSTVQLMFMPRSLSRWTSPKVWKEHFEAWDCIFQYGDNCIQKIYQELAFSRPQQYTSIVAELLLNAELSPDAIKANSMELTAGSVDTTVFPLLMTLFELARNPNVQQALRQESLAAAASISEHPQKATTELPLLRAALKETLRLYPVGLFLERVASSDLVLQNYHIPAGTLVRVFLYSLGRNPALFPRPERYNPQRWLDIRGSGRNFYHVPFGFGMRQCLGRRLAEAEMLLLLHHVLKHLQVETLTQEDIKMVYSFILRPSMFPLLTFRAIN
attribute.measured: pKd
Recall that pKd is obtained by taking minus log10 of the concentration measured in molar.

Input line: Bench note: what pKd did C[C@]12CCC(=O)C=C1CC[C@@H]1[C@@H]2CC[C@@]2(C)[C@H]1CC[C@]2(O)C(=O)CO [11-deoxycortisol] show?
Output line: 4.68

Source of measurements: paper PMC9907956
